protocol_notes: Tissue distribution in Swiss nu/nu SSCUP mice bearing Dau
Type: in vivo, human
conditions: mouse, blood, iv, 3 umol/animal, 1 h; read-out: blood % ID/g
Listing of entries alongside the reported tissue uptake at 1 h.
Respond numerically; units are %ID/g and should not be typed.

- compound: "CCN(CC)CCNC(=O)c1ccc(I)cc1 [Derivative A, N-(2-diethylaminoethyl) 4-iodo benzamide]"
  parameter_measured: "tissue uptake at 1 h"
  readout_number: 0.89

-- ask Using the record for CCNCCNC(=O)c1ccc(I)cc1 [Derivative B, N-(2-ethylaminoethyl) 4-iodo benzamide] , report its tissue uptake at 1 h.
-- reply 0.89

----------
protocol_notes: Tissue distribution in Swiss nu/nu SSCUP mice bearing Dau
Format: in vivo, human
conditions: mouse, eye, iv, 3 umol/animal, 6 h; read-out: eye % ID/g
This listing pairs compounds with measured tissue uptake at 6 h.
The response must be a number in %ID/g with no trailing unit.

- compound: "CCN(CC)CCNC(=O)c1ccc(I)cc1 [Derivative A, N-(2-diethylaminoethyl) 4-iodo benzamide]"
  tissue uptake at 6 h (%ID/g): 0.16

Proceeding to the next compound to report its tissue uptake at 6 h.
-- ask Find the recorded tissue uptake at 6 h belonging to CCNCCNC(=O)c1ccc(I)cc1 [Derivative B, N-(2-ethylaminoethyl) 4-iodo benzamide] and report it.
-- reply 0.19

----------
protocol_notes: Tissue distribution in C57 BL6 mice bearing B16
Format: in vivo, mouse
conditions: mouse, liver, iv, 3 umol/animal, 6 h; read-out: liver % ID/g
This section presents compounds with their documented tissue uptake at 6 h values.
Write the number in %ID/g without appending the unit.

- compound: "CCN(CC)CCNC(=O)c1ccc(I)cc1 [Derivative A, N-(2-diethylaminoethyl) 4-iodo benzamide]"
  result_unit: "%ID/g"
  readout_number: 0.95

Proceed to the following item.
-- ask Which value of tissue uptake at 6 h has been reported for CCNCCNC(=O)c1ccc(I)cc1 [Derivative B, N-(2-ethylaminoethyl) 4-iodo benzamide] in the records?
-- reply 0.96

----------
protocol_notes: Tissue distribution in Swiss nu/nu SSCUP mice bearing Beu
Assay type: in vivo, human
conditions: mouse, muscle, iv, 3 umol/animal, 6 h; read-out: muscle % ID/g
Method: The study of the tissue distribution of the ^125 I labelled compounds was performed in mice bearing grafted melanomas (cf. autoradiograms above). […] The animals are sacrificed at different time intervals of 1 to 24 hours after the injection. The blood is collected and the principal organs are excised. Aliquots are weighed and the radioactivity of the samples is measured in a […] 1191 counter (analytic tracer). The counting yield for iodine 125 is 60%. […]
parameter_measured: tissue uptake at 6 h (%ID/g)
Write the number in %ID/g without appending the unit.

-- ask Which tissue uptake at 6 h value belongs to CCN(CC)CCNC(=O)c1ccc(I)cc1 [Derivative A, N-(2-diethylaminoethyl) 4-iodo benzamide] ?
-- reply 0.33

----------
protocol_notes: Tissue distribution in Swiss nu/nu SSCUP mice bearing Dau
Type: in vivo, human
conditions: mouse, kidney, iv, 3 umol/animal; 8 h; read-out: kidney % ID/g
Experimental: The study of the tissue distribution of the ^125 I labelled compounds was performed in mice bearing grafted melanomas (cf. autoradiograms above). […] The animals are sacrificed at different time intervals of 1 to 24 hours after the injection. The blood is collected and the principal organs are excised. Aliquots are weighed and the radioactivity of the samples is measured in a […] 1191 counter (analytic tracer). The counting yield for iodine 125 is 60%. […]
parameter_measured: tissue uptake at 8 h (%ID/g)
Provide only the numeric value, understood in %ID/g.

- compound: "CCN(CC)CCNC(=O)c1ccc(I)cc1 [Derivative A, N-(2-diethylaminoethyl) 4-iodo benzamide]"
  parameter_measured: "tissue uptake at 8 h"
  result_unit: "%ID/g"
  readout_number: 0.32

For the next question, use this compound.
-- ask Fill in the blank: the reported tissue uptake at 8 h of CCNCCNC(=O)c1ccc(I)cc1 [Derivative B, N-(2-ethylaminoethyl) 4-iodo benzamide] is ____.
-- reply 0.42

----------
protocol_notes: Tissue distribution in Swiss nu/nu SSCUP mice bearing Dau
Type: in vivo, human
conditions: mouse, plasma, iv, 3 umol/animal, 24 h; read-out: plasma % ID/g
parameter_measured: tissue uptake at 24 h (%ID/g)
Give the value, in units of %ID/g, as a plain number.

- compound: "CCN(CC)CCNC(=O)c1ccc(I)cc1 [Derivative A, N-(2-diethylaminoethyl) 4-iodo benzamide]"
  tissue uptake at 24 h / %ID/g: 0.007

Next:
-- ask May I ask what tissue uptake at 24 h has been recorded for CCNCCNC(=O)c1ccc(I)cc1 [Derivative B, N-(2-ethylaminoethyl) 4-iodo benzamide] ?
-- reply 0.009

----------
protocol_notes: Tissue distribution in C57 BL6 mice bearing B16
Assay type: in vivo, mouse
conditions: mouse, tumor, iv, 3 umol/animal, up to 8 hours, B16; read-out: intratumoral concentration
parameter_measured: tissue uptake at 8 h

-- ask Which measured tissue uptake at 8 h value corresponds to CCN(CC)CCNC(=O)c1ccc(I)cc1 [Derivative A, N-(2-diethylaminoethyl) 4-iodo benzamide] ?
-- reply > 1 %ID/g

----------
protocol_notes: Tissue distribution in Swiss nu/nu SSCUP mice bearing Beu
Type: in vivo, human
conditions: mouse, intestine, iv, 3 umol/animal; 4 h; read-out: intestine % ID/g
parameter_measured: tissue uptake at 4 h (%ID/g)
Quick note: give the figure in %ID/g, leave out the unit.

-- ask Which value of tissue uptake at 4 h has been reported for CCN(CC)CCNC(=O)c1ccc(I)cc1 [Derivative A, N-(2-diethylaminoethyl) 4-iodo benzamide] in the records?
-- reply 1.56

----------
protocol_notes: Tissue distribution in C57 BL6 mice bearing B16
Type: in vivo, mouse
conditions: mouse, muscle, iv, 3 umol/animal; 8 h; read-out: muscle % ID/g
parameter_measured: tissue uptake at 8 h (%ID/g)
Give a bare numeral; the unit %ID/g is implied.

-- ask Find the recorded tissue uptake at 8 h belonging to CCN(CC)CCNC(=O)c1ccc(I)cc1 [Derivative A, N-(2-diethylaminoethyl) 4-iodo benzamide] and report it.
-- reply 0.14

----------
protocol_notes: Tissue distribution in Swiss nu/nu SSCUP mice bearing Dau
Format: in vivo, human
conditions: mouse, tumor, iv, 3 umol/animal; 8 h; read-out: tumor % ID/g
parameter_measured: tissue uptake at 8 h (%ID/g)
Entry rule: numbers only, all in %ID/g.

- molecule: "CCN(CC)CCNC(=O)c1ccc(I)cc1 [Derivative A, N-(2-diethylaminoethyl) 4-iodo benzamide]"
  tissue uptake at 8 h / %ID/g: 0.11

Then this molecule:
-- ask # input molecule: CCNCCNC(=O)c1ccc(I)cc1 [Derivative B, N-(2-ethylaminoethyl) 4-iodo benzamide] ; wanted: its tissue uptake at 8 h
-- reply 0.12

----------
protocol_notes: Tissue distribution in Swiss nu/nu SSCUP mice bearing Beu
Assay type: in vivo, human
conditions: mouse, plasma, iv, 3 umol/animal; 12 h; read-out: plasma % ID/g
parameter_measured: tissue uptake at 12 h (%ID/g)
Response body: numeric value in %ID/g, unit text excluded.

-- ask Look up tissue uptake at 12 h for this compound: CCN(CC)CCNC(=O)c1ccc(I)cc1 [Derivative A, N-(2-diethylaminoethyl) 4-iodo benzamide]
-- reply 0.02

----------
Recorded tissue uptake at 6 h, one value per entry.
protocol_notes: Tissue distribution in Swiss nu/nu SSCUP mice bearing Dau
Type: in vivo, human
conditions: mouse, muscle, iv, 3 umol/animal, 6 h; read-out: muscle % ID/g
The figure you give is taken to be in %ID/g; do not add the unit.

- molecule: "CCN(CC)CCNC(=O)c1ccc(I)cc1 [Derivative A, N-(2-diethylaminoethyl) 4-iodo benzamide]"
  tissue uptake at 6 h / %ID/g: 0.11

Kindly consider the entry below.
-- ask Endpoint output: tissue uptake at 6 h of CCNCCNC(=O)c1ccc(I)cc1 [Derivative B, N-(2-ethylaminoethyl) 4-iodo benzamide] . Value?
-- reply 0.12

----------
protocol_notes: Tissue distribution in Swiss nu/nu SSCUP mice bearing Beu
Type: in vivo, human
conditions: mouse, eye, iv, 3 umol/animal, 6 h; read-out: eye % ID/g
parameter_measured: tissue uptake at 6 h (%ID/g)
Return type: number; implicit unit %ID/g.

-- ask // tissue uptake at 6 h lookup, key: CCN(CC)CCNC(=O)c1ccc(I)cc1 [Derivative A, N-(2-diethylaminoethyl) 4-iodo benzamide]
-- reply 0.13

----------
protocol_notes: Tissue distribution in C57 BL6 mice bearing B16
Assay type: in vivo, mouse
conditions: mouse, tumor, iv, 3 umol/animal, 2 h; read-out: tumor % ID/g
parameter_measured: tissue uptake at 2 h (%ID/g)
Numbers only; they are read as %ID/g.

- molecule: "CCN(CC)CCNC(=O)c1ccc(I)cc1 [Derivative A, N-(2-diethylaminoethyl) 4-iodo benzamide]"
  tissue uptake at 2 h (%ID/g): 6.04

Turning to the following molecule.
-- ask Any idea what tissue uptake at 2 h was measured for CCNCCNC(=O)c1ccc(I)cc1 [Derivative B, N-(2-ethylaminoethyl) 4-iodo benzamide] ?
-- reply 5.73

----------
protocol_notes: Tissue distribution in Swiss nu/nu SSCUP mice bearing Dau
Assay type: in vivo, human
conditions: mouse, submaxillary glands, iv, 3 umol/animal; 8 h; read-out: submaxillary glands % ID/g
The entries below come with measured tissue uptake at 8 h values attached.
Use %ID/g as the unit, but write only the number.

- compound: "CCN(CC)CCNC(=O)c1ccc(I)cc1 [Derivative A, N-(2-diethylaminoethyl) 4-iodo benzamide]"
  parameter_measured: "tissue uptake at 8 h"
  readout_number: 0.77

// switching to the query compound
-- ask What does the record list as tissue uptake at 8 h for CCNCCNC(=O)c1ccc(I)cc1 [Derivative B, N-(2-ethylaminoethyl) 4-iodo benzamide] ?
-- reply 0.39
